Molecular target: Muscarinic acetylcholine receptor M1 (Rattus norvegicus) (UniProt P08482)
Sequence (P08482 whole entry, looked up): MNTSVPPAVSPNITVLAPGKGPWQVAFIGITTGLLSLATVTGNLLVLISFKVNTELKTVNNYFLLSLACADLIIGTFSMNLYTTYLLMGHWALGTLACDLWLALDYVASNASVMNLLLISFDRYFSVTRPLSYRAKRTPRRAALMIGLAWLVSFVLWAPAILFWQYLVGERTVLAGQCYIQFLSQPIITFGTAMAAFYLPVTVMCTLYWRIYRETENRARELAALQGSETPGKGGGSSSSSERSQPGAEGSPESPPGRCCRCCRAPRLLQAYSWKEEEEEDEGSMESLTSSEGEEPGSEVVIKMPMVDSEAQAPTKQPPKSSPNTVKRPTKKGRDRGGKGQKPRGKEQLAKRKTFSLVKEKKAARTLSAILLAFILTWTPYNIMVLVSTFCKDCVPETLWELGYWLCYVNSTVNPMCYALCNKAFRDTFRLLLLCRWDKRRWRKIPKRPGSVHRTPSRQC
Assay: antagonists of rat M1 muscarinic receptor (AID 628)
Details: CHO-M1 cells, Fluo-4 calcium, ACh EC80 antagonist mode; at 10 µM; stronger effect = lower value
About 2,200 (3.4%) of roughly 64,000 compounds were called active. This is one part of a sample in which actives are shown more often than they occur.

>  <compound>
CCOC(=O)N1CCC(NC(=O)c2cnn3ccccc23)CC1

>  <B-score>
0.733

$$$$
>  <compound>
COc1ccc(OCC(=O)N2CCOCC2)cc1

>  <B-score>
-0.0545

$$$$
>  <compound>
CCOC(=O)C1CCN(Cc2coc3ccc(Cl)cc3c2=O)CC1

>  <B-score>
-5.08

$$$$
>  <compound>
O=C(CCN1C(=O)COc2ccccc21)NCCCN1CCN(c2ccc(F)cc2)CC1

>  <B-score>
-2.15

$$$$
>  <compound>
COC(=O)COc1ccc(S(=O)(=O)N2CCOCC2)cc1

>  <B-score>
0.524

$$$$
>  <compound>
CCSc1nc(=S)n(CC)c(C)c1C(C)=O

>  <B-score>
-0.669

$$$$
>  <compound>
CC(=C1C(=O)c2ccccc2C1=O)N1CCN(c2ccccn2)CC1

>  <B-score>
0.0748

$$$$
>  <compound>
OC(COc1ccc2ccccc2c1)CN1CCOCC1 (configuration not stated)

>  <B-score>
-0.165

$$$$
>  <compound>
Oc1ccc(Cl)cc1/C=N/c1nc2ccccc2[nH]1

>  <B-score>
0.265

$$$$
>  <compound>
O=S(=O)(c1ccc(OCC(O)CN2CCN(c3ccccc3Cl)CC2)cc1)N1CCOCC1 (configuration not stated)

>  <B-score>
-1.73

$$$$
>  <compound>
O=C(Nc1cccc(NC(=O)N2CCN(c3ccccc3)CC2)c1)N1CCN(c2ccccc2)CC1

>  <B-score>
-3

$$$$
>  <compound>
CCCN1CCN(CCCNC(=O)CN2C(=O)COc3ccccc32)CC1

>  <B-score>
0.138

$$$$
>  <compound>
COc1ccccc1N1CCN(C(=O)CSc2nnc(-c3ccoc3C)o2)CC1

>  <B-score>
-1.48

$$$$
>  <compound>
O=C(CC(Cc1ccccc1)C(=O)O)NCCc1ccc2c(c1)OCO2 (configuration not stated)

>  <B-score>
-0.392

$$$$
>  <compound>
Cc1ccc2nc(NC3=NCN(CCc4ccccc4)CN3)nc(C)c2c1

>  <B-score>
-5.98

$$$$
>  <compound>
O=C(CSc1nc2[nH]ncc2c(=O)n1-c1ccccc1)N1CCCc2ccccc21

>  <B-score>
0.281

$$$$
>  <compound>
CCOc1ccccc1C(=O)NCCCn1ccnc1

>  <B-score>
-0.947

$$$$
>  <compound>
CCCOc1ccc(C2c3c(oc4cc(C)c(C)cc4c3=O)C(=O)N2CCCN2CCOCC2)cc1 (configuration not stated)

>  <B-score>
-2.07

$$$$
>  <compound>
CCOc1cc(S(=O)(=O)NCc2ccc3c(c2)OCO3)ccc1F

>  <B-score>
0.637

$$$$
>  <compound>
COc1ccc(N2CCN(CCNC(=O)CCN3C(=O)COc4ccccc43)CC2)cc1

>  <B-score>
1.04

$$$$
>  <compound>
CN(C)CCCNc1c2c(c(C#N)c3nc4ccccc4n13)CCC2

>  <B-score>
-3.92

$$$$
>  <compound>
CNC(=O)CSc1nnnn1-c1ccc(C)cc1C

>  <B-score>
-0.461

$$$$
>  <compound>
COc1cccc(-c2nnc(N(C)C(=O)c3ccno3)s2)c1

>  <B-score>
0.344

$$$$
>  <compound>
COc1ccc(C(CC(=O)O)NC(=O)Cc2ccccc2)cc1 (configuration not stated)

>  <B-score>
-0.777

$$$$
>  <compound>
COc1cc(OC)c(NC(=O)c2ccc(Br)o2)cc1Cl

>  <B-score>
0.263

$$$$
>  <compound>
CN(C)CCNC(=O)C(C(=O)c1ccccc1)n1ccccc1=O (configuration not stated)

>  <B-score>
0.0113

$$$$
>  <compound>
OC(COc1cccc(OCC(O)CN2CCCC2)c1)CN1CCCC1 (configuration not stated)

>  <B-score>
-0.0676

$$$$
>  <compound>
Cc1cc(NC(=O)COn2nnc3ccccc32)no1

>  <B-score>
-0.00408

$$$$
>  <compound>
CCn1cc(NC(=O)Nc2ccc(OC)c(OC)c2)c(C(N)=O)n1

>  <B-score>
-0.416

$$$$
>  <compound>
CCCC(=O)Nc1ccc(Cl)c(NC(=O)c2ccc(Br)o2)c1

>  <B-score>
0.768

$$$$
>  <compound>
O=C(O)c1ccc(NS(=O)(=O)c2cccc3nsnc23)cc1

>  <B-score>
1.18

$$$$
>  <compound>
Cc1nn(CC(=O)Nc2ccc3c(c2)nc(CN2CCCCC2)n3C)c(=O)c2ccccc12

>  <B-score>
-0.553

$$$$
>  <compound>
O=C(NCCCCO)C(F)(F)C(F)(F)C(F)(F)C(=O)NCCCCO

>  <B-score>
0.234

$$$$
>  <compound>
CC1Oc2ccccc2N(Cc2cccnc2)C1=O (configuration not stated)

>  <B-score>
1.07

$$$$
>  <compound>
CCOC(=O)CNC(=O)CSc1nnnn1-c1cc(C)ccc1C

>  <B-score>
0.408

$$$$
>  <compound>
Cc1ccc2oc(=O)c3cnn(CC(=O)N4CCN(c5ccccn5)CC4)c3c2c1

>  <B-score>
0.00225

$$$$
>  <compound>
CC(=O)c1c(N)n(C)c(=O)n(C)c1=O

>  <B-score>
0.343

$$$$
>  <compound>
CN(CC(=O)NC1CCCCC1)S(=O)(=O)c1ccc(Br)s1

>  <B-score>
-1.64

$$$$
>  <compound>
CCCCOCCCNC(=O)c1ccccc1OCC

>  <B-score>
0.466

$$$$
>  <compound>
CCOC(=O)c1ccc(N2C(=O)CC(N3CCC(C(=O)OCC)CC3)C2=O)cc1 (configuration not stated)

>  <B-score>
-0.522

$$$$
>  <compound>
COc1ccc(OC)c(C(=O)c2coc3ccc(OC)cc23)c1

>  <B-score>
-1.32

$$$$
>  <compound>
O=C(COC(=O)c1ccc2c(c1)OCCO2)NCc1ccccc1

>  <B-score>
0.116

$$$$
>  <compound>
Cn1c(CCN2CCCCCC2)nc2cc(NC(=O)Nc3ccccc3)ccc21

>  <B-score>
-12.1

$$$$
>  <compound>
COC(=O)c1sc(=S)n(-c2ccccc2)c1N

>  <B-score>
0.339

$$$$
>  <compound>
COc1cccc(-c2cc3nc4c(c(N5CCC6(CC5)OCCO6)n3n2)CCCC4)c1

>  <B-score>
-0.0679

$$$$
>  <compound>
CCOC(=O)CCc1c(C)c(C#N)c2[nH]c3ccccc3n2c1=O

>  <B-score>
-0.0991

$$$$
>  <compound>
CC(NC(=O)Nc1ccccc1)c1ccccc1 (configuration not stated)

>  <B-score>
0.2

$$$$

---

Molecular target: Muscarinic acetylcholine receptor M1 (Rattus norvegicus) (UniProt P08482)
Test: antagonists of rat M1 muscarinic receptor (AID 628)
Settings: CHO-M1 cells, Fluo-4 calcium, ACh EC80 antagonist mode; at 10 µM
Out of some 64,000 compounds screened, about 2,200 (3.4%) were called active.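 The calls were made as follows: active = calcium fluorescence response, raw or row-and-column corrected B-score, differing from the plate sample mean either way at a set confidence level, mostly lower; inactive = the rest.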 The sample holds actives, similar compounds and a random draw of the others, so the mix is not that of the screen.
Outcome codes: active, inactive

>  <compound>
Brc1ccc(Nc2c3c(nc4ncnn24)CCC3)cc1

>  <class_name>
inactive

$$$$
>  <compound>
CCCc1nnc(NC(=O)CN2C(=O)c3ccccc3S2(=O)=O)s1

>  <class_name>
inactive

$$$$
>  <compound>
Cc1cc(C)c(C#N)c(SCc2[nH]nc3c2C(c2ccccc2)C(C#N)=C(N)O3)n1 (centres undefined)

>  <class_name>
inactive

$$$$
>  <compound>
Cc1cccc(C)c1NC(=O)N1CC=C(n2c(=O)[nH]c3ccccc32)CC1

>  <class_name>
inactive

$$$$
>  <compound>
COC(=O)NC1(C(F)(F)F)NC(=O)N(C2CCCCC2)C1=O (centres undefined)

>  <class_name>
inactive

$$$$
>  <compound>
CCOc1cc(C)c(Cl)cc1S(=O)(=O)n1nnc2ccccc21

>  <class_name>
inactive

$$$$
>  <compound>
CC1Cc2nc(SCC(=O)Nc3ccccc3F)n(C)c(=O)c2S1 (centres undefined)

>  <class_name>
inactive

$$$$
>  <compound>
Nc1nnc(SCCN2C(=O)c3ccccc3S2(=O)=O)s1

>  <class_name>
active

$$$$
>  <compound>
CCc1ccc2oc(=O)cc(CN3CCCCC3C)c2c1 (centres undefined)

>  <class_name>
inactive

$$$$
>  <compound>
COc1ccc(Cl)cc1NC(=O)c1oc(C)nc1C

>  <class_name>
inactive

$$$$
>  <compound>
COc1ccc(S(=O)(=O)Nc2ccc(S(=O)(=O)N3CCCCC3)cc2)cc1OC

>  <class_name>
inactive

$$$$
>  <compound>
C/C(CC(O)(/C=N/O)c1ccccc1)=N\O (centres undefined)

>  <class_name>
inactive

$$$$
>  <compound>
Cc1ccc(-c2noc(CCC(N)=O)n2)cc1

>  <class_name>
inactive

$$$$
>  <compound>
Nc1ccc(-n2nncc2-c2ccco2)cc1

>  <class_name>
inactive

$$$$
>  <compound>
CCn1c(SCC(=O)Nc2ccccc2F)nc2c(c1=O)SC(C)C2 (centres undefined)

>  <class_name>
inactive

$$$$
>  <compound>
Cc1ccc2cc3cc(C(=O)N4CCCCCC4)oc3nc2c1

>  <class_name>
inactive

$$$$
>  <compound>
Cn1c(=O)[nH]c(=O)c2c1nc(N1CCCCCC1)n2CC(=O)c1ccccc1

>  <class_name>
inactive

$$$$
>  <compound>
COc1ccc(CCn2c(=N)c(C(=O)NCc3ccco3)cc3c(=O)n4cccc(C)c4nc32)cc1

>  <class_name>
active

$$$$
>  <compound>
C=C(C)Cn1c(N2CCCC2)nc2c1c(=O)[nH]c(=O)n2C

>  <class_name>
active

$$$$
>  <compound>
N#Cc1ccc(OCCN2C(=O)NC3(CCSC3)C2=O)cc1 (centres undefined)

>  <class_name>
inactive

$$$$
>  <compound>
CC(C)Oc1ccc(C2NC(=O)NC2=O)cc1 (centres undefined)

>  <class_name>
inactive

$$$$
>  <compound>
C=C(C)Cn1c(N2CCN(CC)CC2)nc2c1c(=O)[nH]c(=O)n2C

>  <class_name>
inactive

$$$$
>  <compound>
CC(=O)C1=C(O)C(=O)N(c2ccc(S(N)(=O)=O)cc2)C1c1ccccc1F (centres undefined)

>  <class_name>
inactive

$$$$
>  <compound>
CCCC(=O)Nc1ccccc1N1CCN(C(=O)c2ccccc2)CC1

>  <class_name>
inactive

$$$$

Hello, the source for this data is PubChem BioAssay AID628, in case you need it.
